Taken from paper PMC8329713.

Target: T1, 14-3-3β (full length) (human, UniProt P31946 1-246)
T1 chain: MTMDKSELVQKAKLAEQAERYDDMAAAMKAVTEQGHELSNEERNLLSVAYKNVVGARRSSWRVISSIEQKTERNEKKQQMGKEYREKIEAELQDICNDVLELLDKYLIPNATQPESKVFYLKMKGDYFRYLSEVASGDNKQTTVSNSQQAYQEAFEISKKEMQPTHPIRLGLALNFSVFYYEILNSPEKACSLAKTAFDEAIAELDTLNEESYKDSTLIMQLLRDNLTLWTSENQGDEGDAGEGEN
Experiment: FP
Non-standard residues stand in square brackets, D forms with d. No end group written: not given here. *: point of attachment. FITC = O=C1OC2(c3ccc(O)cc3Oc3cc(O)ccc32)c2ccc(NC(=S)*)cc21; pS = N[C@@H](COP(=O)(O)O)C(=O)O; Ahx = NCCCCCC(=O)O
Measurement Label: Kd
Numeric answer plus unit only.

Fill blank: measured Kd of the binder {FITC-Ahx}-LLRSH[pS]MPSAAC (also: phosphoserine at 542, position not mapped, Schnurri-3 (SHN3, transcription factor HIVEP3), human, 12-mer around phosphorylated Ser542; also called SHN3pS542-FITC; the FITC-labelled form; source: synthetic peptide, bought: GenScript (purity >95%)) [SHN3pS542 peptide, N-terminally FITC-Ahx-labelled] is ____.
1380 nM
